B1: 6NMW (parent)
chain: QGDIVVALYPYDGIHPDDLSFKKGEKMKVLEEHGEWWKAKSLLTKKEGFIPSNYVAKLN

Variants of: B1
assay.method.text: folding stability dG (cDNA display proteolysis); higher = more stable
measurement.parameters: PBS, room temperature
Each record gets a class by folding stability dG: low = under 1 kcal/mol, middle = from 1 kcal/mol up to 2 kcal/mol, high = 2 kcal/mol and over

Which category does the recorded folding stability dG put K23G in?
middle

Band assignment needed for D17V please.
high

Next up:
The entry to classify is L19S ; which class holds it?
low

Attribution: the MegaScale stability set (Tsuboyama et al. 2023)
